Molecular target: Serine/threonine-protein kinase Chk2 (Homo sapiens, UniProt O96017)
Sequence (O96017 whole entry): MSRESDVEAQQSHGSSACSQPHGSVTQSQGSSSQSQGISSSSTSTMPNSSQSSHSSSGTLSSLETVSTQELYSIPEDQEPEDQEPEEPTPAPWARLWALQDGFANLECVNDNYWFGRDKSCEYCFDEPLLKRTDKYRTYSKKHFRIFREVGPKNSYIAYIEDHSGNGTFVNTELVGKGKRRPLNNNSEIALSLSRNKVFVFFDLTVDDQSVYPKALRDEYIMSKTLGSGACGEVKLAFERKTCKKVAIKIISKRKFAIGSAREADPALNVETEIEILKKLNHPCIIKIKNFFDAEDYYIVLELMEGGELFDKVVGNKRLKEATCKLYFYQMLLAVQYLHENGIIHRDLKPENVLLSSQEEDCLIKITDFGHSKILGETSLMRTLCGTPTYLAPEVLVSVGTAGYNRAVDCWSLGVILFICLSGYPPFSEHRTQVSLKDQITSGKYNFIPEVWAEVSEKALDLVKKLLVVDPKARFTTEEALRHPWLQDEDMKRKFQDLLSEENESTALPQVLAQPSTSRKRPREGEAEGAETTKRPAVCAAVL
recorded.endpoint: IC50

INSERT INTO assay_data (query_smiles, recorded_endpoint, assay_value) VALUES
  ('NC1=N/C(=C2/CCNC(=O)c3[nH]ccc32)C(=O)N1', 'IC50', '183 nM'),
  ('NC1=NC(=O)/C(=C2\CCNC(=O)c3[nH]c(Br)cc32)N1', 'IC50', '42 nM');

---

What follows is a collection of IC50 values obtained with Serine/threonine-protein kinase Chk1 (Homo sapiens, UniProt O14757).
Sequence (O14757 whole entry): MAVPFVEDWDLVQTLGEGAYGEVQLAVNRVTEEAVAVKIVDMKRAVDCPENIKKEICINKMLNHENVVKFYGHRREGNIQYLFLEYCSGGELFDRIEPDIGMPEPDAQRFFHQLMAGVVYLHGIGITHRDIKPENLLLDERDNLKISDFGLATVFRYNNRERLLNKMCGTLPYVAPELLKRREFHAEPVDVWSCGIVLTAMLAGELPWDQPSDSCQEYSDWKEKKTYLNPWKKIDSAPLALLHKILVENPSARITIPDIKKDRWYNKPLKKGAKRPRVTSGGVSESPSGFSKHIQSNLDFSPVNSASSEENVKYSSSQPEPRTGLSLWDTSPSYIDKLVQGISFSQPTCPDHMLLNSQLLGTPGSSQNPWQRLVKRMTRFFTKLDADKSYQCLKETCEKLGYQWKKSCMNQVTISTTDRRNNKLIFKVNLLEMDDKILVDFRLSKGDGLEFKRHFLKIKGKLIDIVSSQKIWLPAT
recorded.endpoint: IC50 (nM)

INSERT INTO measurements (query_smiles, readout_unit, assay_value) VALUES
  ('NC1=N/C(=C2/CCNC(=O)c3[nH]ccc32)C(=O)N1', 'nM', 725),
  ('Nc1nc(C2=C3C(=Nc4ccccc43)C(=O)NCC2)c(O)[nH]1', 'nM', 237);

meta.source: ChEMBL document CHEMBL1137167
